Assayed target: KpnFyuA
Test name: Fluorescence quenching binding to KpnFyuA-FM sensor
Parameters: species or system Klebsiella pneumoniae
Reported conditions: apo (parenthetic value); S631C; read-out: Affinity (KD) of sensor KpnFyuA, apo siderophore
Observable: Kd (nM)

> print(dat)
                                   compound  assayed.target  observable  reported
1  CC(C)(C1=N[C@@](C)(C(=O)O)CS1)[C@H](O)[C@@H]1CSC([C@H]2CSC(c3ccccc3O)=N2)N1 (stereo partly shown) [Ybt, yersiniabactin]         KpnFyuA          Kd       120
